Where do these numbers come from? They come from the supplement of paper PMC9112550.

# System: Escherichia coli TOP10
# RUN DESCRIPTION: shrunken log2 fold change of peptide-encoding DNA abundance (4.5 h post-induction vs induction); higher = less antimicrobial activity (less host growth inhibition)
# SETUP CONDITIONS: time post-induction: 4.5 h; library: site-saturation at positions 5, 18, 19, 20
Item-by-item account of shrunken log2 fold change
No unit in the answer, only the number.

Consider the worked cases shown below.
PRIMARY SEQUENCE: RRIRCRPPRLPRPRPRPKQNPRP
TESTED SYSTEM: Escherichia coli TOP10
shrunken log2 fold change: 0.136

PRIMARY SEQUENCE: RRIRARPPRLPRPRPRPRQHPRP
TESTED SYSTEM: Escherichia coli TOP10
shrunken log2 fold change: 0.278

With Escherichia coli TOP10 as the test system, `RRIRTRPPRLPRPRPRPQNKPRP` showed shrunken log2 fold change of -0.664

* * *

Item-by-item account of shrunken log2 fold change
# Test system: Escherichia coli TOP10
# RUN DESCRIPTION: shrunken log2 fold change of peptide-encoding DNA abundance (4.5 h post-induction vs induction); higher = less antimicrobial activity (less host growth inhibition)
# SETUP CONDITIONS: time post-induction: 4.5 h; library: site-saturation at positions 5, 18, 19, 20
No unit in the answer, only the number.

Consider the worked cases shown below.
PRIMARY SEQUENCE: RRIRRRPPRLPRPRPRPCMNPRP
VALUE KIND: shrunken log2 fold change
VALUE: -0.154

PRIMARY SEQUENCE: RRIRRRPPRLPRPRPRPMDSPRP
VALUE KIND: shrunken log2 fold change
VALUE: -0.0307

PRIMARY SEQUENCE: RRIRIRPPRLPRPRPRPEHHPRP
VALUE KIND: shrunken log2 fold change
VALUE: -0.206

PRIMARY SEQUENCE: RRIRMRPPRLPRPRPRPFKFPRP
VALUE KIND: shrunken log2 fold change
VALUE: -0.012

PRIMARY SEQUENCE: RRIRVRPPRLPRPRPRPSVWPRP
VALUE KIND: shrunken log2 fold change
VALUE: 0.102

Summary for this sequence, `RRIRFRPPRLPRPRPRPVGKPRP` : shrunken log2 fold change is 0.13

Summary for this sequence, `RRIRRRPPRLPRPRPRPGNQPRP` : shrunken log2 fold change is 0.0401

* * *

# System: Escherichia coli TOP10
# RUN DESCRIPTION: shrunken log2 fold change of peptide-encoding DNA abundance (4.5 h post-induction vs induction); higher = less antimicrobial activity (less host growth inhibition)
# SETUP CONDITIONS: time post-induction: 4.5 h; library: site-saturation at positions 5, 18, 19, 20
Decide by shrunken log2 fold change: equal to or exceeding -0.09 means t, less means f.

PRIMARY SEQUENCE: RRIRGRPPRLPRPRPRPDSKPRP
TESTED SYSTEM: Escherichia coli TOP10
ASSIGNED CATEGORY: t

PRIMARY SEQUENCE: RRIRHRPPRLPRPRPRPSMPPRP
TESTED SYSTEM: Escherichia coli TOP10
ASSIGNED CATEGORY: f

PRIMARY SEQUENCE: RRIRRRPPRLPRPRPRPTNSPRP
TESTED SYSTEM: Escherichia coli TOP10
ASSIGNED CATEGORY: t

PRIMARY SEQUENCE: RRIRSRPPRLPRPRPRPAQMPRP
TESTED SYSTEM: Escherichia coli TOP10
ASSIGNED CATEGORY: t

PRIMARY SEQUENCE: RRIRLRPPRLPRPRPRPRETPRP
TESTED SYSTEM: Escherichia coli TOP10
ASSIGNED CATEGORY: t

PRIMARY SEQUENCE: RRIRFRPPRLPRPRPRPWADPRP
TESTED SYSTEM: Escherichia coli TOP10
ASSIGNED CATEGORY: f

PRIMARY SEQUENCE: RRIRERPPRLPRPRPRPGKLPRP
TESTED SYSTEM: Escherichia coli TOP10
ASSIGNED CATEGORY: t

PRIMARY SEQUENCE: RRIRGRPPRLPRPRPRPIKWPRP
TESTED SYSTEM: Escherichia coli TOP10
ASSIGNED CATEGORY: t

Please look at the following sequence next.
Exercise: Please tell me: is the sequence `RRIRWRPPRLPRPRPRPQSAPRP` at or over -0.09 in terms of shrunken log2 fold change?
Key: t

* * *

# Tested on: Escherichia coli TOP10
# RUN DESCRIPTION: shrunken log2 fold change of peptide-encoding DNA abundance (4.5 h post-induction vs induction); higher = less antimicrobial activity (less host growth inhibition)
# SETUP CONDITIONS: time post-induction: 4.5 h; library: site-saturation at positions 5, 18, 19, 20
VALUE KIND: shrunken log2 fold change
No unit in the answer, only the number.

Consider the worked cases shown below.
PRIMARY SEQUENCE: RRIRSRPPRLPRPRPRPDYAPRP
VALUE: -0.0222
//
PRIMARY SEQUENCE: RRIRQRPPRLPRPRPRPGLLPRP
VALUE: -0.0475
//
PRIMARY SEQUENCE: RRIRHRPPRLPRPRPRPFTMPRP
VALUE: -0.349
//
PRIMARY SEQUENCE: RRIRKRPPRLPRPRPRPLSDPRP
VALUE: 0.22
//
PRIMARY SEQUENCE: RRIRTRPPRLPRPRPRPFWEPRP
VALUE: 1.78

Summary for this sequence, `RRIRQRPPRLPRPRPRPVWKPRP` : shrunken log2 fold change is 0.121

Summary for this sequence, `RRIRWRPPRLPRPRPRPISRPRP` : shrunken log2 fold change is -0.116

Summary for this sequence, `RRIRKRPPRLPRPRPRPPVIPRP` : shrunken log2 fold change is 0.063

Summary for this sequence, `RRIRVRPPRLPRPRPRPAYHPRP` : shrunken log2 fold change is -0.316

Summary for this sequence, `RRIRFRPPRLPRPRPRPLREPRP` : shrunken log2 fold change is 0.618

Summary for this sequence, `RRIRQRPPRLPRPRPRPADSPRP` : shrunken log2 fold change is -0.00947

Summary for this sequence, `RRIRTRPPRLPRPRPRPWINPRP` : shrunken log2 fold change is 0.0189

Summary for this sequence, `RRIRMRPPRLPRPRPRPCQLPRP` : shrunken log2 fold change is -0.00804

Summary for this sequence, `RRIRKRPPRLPRPRPRPMTHPRP` : shrunken log2 fold change is -0.00695

Summary for this sequence, `RRIRARPPRLPRPRPRPPRVPRP` : shrunken log2 fold change is 0.875

Summary for this sequence, `RRIRLRPPRLPRPRPRPPDWPRP` : shrunken log2 fold change is 0.427

Summary for this sequence, `RRIRRRPPRLPRPRPRPETLPRP` : shrunken log2 fold change is 0.0675

Summary for this sequence, `RRIRARPPRLPRPRPRPNFFPRP` : shrunken log2 fold change is 0.349

Summary for this sequence, `RRIRARPPRLPRPRPRPYKPPRP` : shrunken log2 fold change is -0.304

Summary for this sequence, `RRIRPRPPRLPRPRPRPSAAPRP` : shrunken log2 fold change is 0.487

Summary for this sequence, `RRIRKRPPRLPRPRPRPHGDPRP` : shrunken log2 fold change is 0.0106

Summary for this sequence, `RRIRTRPPRLPRPRPRPHYEPRP` : shrunken log2 fold change is -0.174

Summary for this sequence, `RRIRARPPRLPRPRPRPQNWPRP` : shrunken log2 fold change is 0.315

Summary for this sequence, `RRIRYRPPRLPRPRPRPKDVPRP` : shrunken log2 fold change is -0.0107

* * *

# Tested on: Escherichia coli TOP10
# RUN DESCRIPTION: shrunken log2 fold change of peptide-encoding DNA abundance (4.5 h post-induction vs induction); higher = less antimicrobial activity (less host growth inhibition)
# SETUP CONDITIONS: time post-induction: 4.5 h; library: site-saturation at positions 5, 18, 19, 20
Decide by shrunken log2 fold change: equal to or exceeding -0.02 means t, less means f.

Exercise: Please tell me: is the sequence `RRIRNRPPRLPRPRPRPESAPRP` at or over -0.02 in terms of shrunken log2 fold change?
Key: t

Exercise: Please tell me: is the sequence `RRIRYRPPRLPRPRPRPCLFPRP` at or over -0.02 in terms of shrunken log2 fold change?
Key: f

* * *

# Test system: Escherichia coli TOP10;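 also: peptides expressed intracellularly from a pBAD plasmid library in pooled LB shake-flask culture, induced with 0.3% L-arabinose, DNA abundance read by NGS, three biological replicates, DESeq2 with apeglm shrinkage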
# RUN DESCRIPTION: shrunken log2 fold change of peptide-encoding DNA abundance (4.5 h post-induction vs induction); higher = less antimicrobial activity (less host growth inhibition)
# SETUP CONDITIONS: time post-induction: 4.5 h; library: site-saturation at positions 5, 18, 19, 20
VALUE KIND: shrunken log2 fold change
No unit in the answer, only the number.

PRIMARY SEQUENCE: RRIRTRPPRLPRPRPRPQMGPRP
shrunken log2 fold change: -0.0284

PRIMARY SEQUENCE: RRIRLRPPRLPRPRPRPFQCPRP
shrunken log2 fold change: 0.000653

PRIMARY SEQUENCE: RRIRARPPRLPRPRPRPETLPRP
shrunken log2 fold change: 1.15

With Escherichia coli TOP10 as the test system, `RRIRDRPPRLPRPRPRPITMPRP` showed shrunken log2 fold change of 0.111

With Escherichia coli TOP10 as the test system, `RRIRARPPRLPRPRPRPLHLPRP` showed shrunken log2 fold change of 0.0337

With Escherichia coli TOP10 as the test system, `RRIRMRPPRLPRPRPRPVRYPRP` showed shrunken log2 fold change of 0.64

With Escherichia coli TOP10 as the test system, `RRIRPRPPRLPRPRPRPSIWPRP` showed shrunken log2 fold change of -0.11

With Escherichia coli TOP10 as the test system, `RRIRRRPPRLPRPRPRPCTFPRP` showed shrunken log2 fold change of -0.262

With Escherichia coli TOP10 as the test system, `RRIRWRPPRLPRPRPRPKHQPRP` showed shrunken log2 fold change of 0.195

With Escherichia coli TOP10 as the test system, `RRIRDRPPRLPRPRPRPSFSPRP` showed shrunken log2 fold change of -0.0351

With Escherichia coli TOP10 as the test system, `RRIRRRPPRLPRPRPRPGNSPRP` showed shrunken log2 fold change of 0.119

With Escherichia coli TOP10 as the test system, `RRIRLRPPRLPRPRPRPMTSPRP` showed shrunken log2 fold change of 0.142

With Escherichia coli TOP10 as the test system, `RRIRVRPPRLPRPRPRPKRWPRP` showed shrunken log2 fold change of 0.706
